Consider the following molecules; for each one, report its pEC50.
Test system: MMP13 in SW1353 cells
Assay Procedure: OSM/IL-1β signaling assay (MMP13 levels in SW1353 cells);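 note: secreted MMP13 captured by antibody, activated with APMA and its activity read by fluorescence, inhibition scaled between vehicle-treated triggered wells (0%) and untriggered wells (100%)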
Type: cell-based
Measurement Setup: Homo sapiens; SW1353 cells, OSM and IL-1β triggered, MMP13 levels 48 hours after triggering; read-out: MMP13 EC50
pEC50: −log10 of the molar value.

Looking for the measured pEC50 of O=C(Nc1nc2cccc(-c3ccc(CC(=O)N4CCS(=O)(=O)CC4)cc3)n2n1)C1CC1 , can you help?
< 6.00

Ok, now O=C(Nc1nc2cccc(-c3ccc4c(ccn4Cc4ccccc4)c3)n2n1)C1CC1
< 6.00

Ok, now O=C(CCOc1ccccc1)Nc1ccc(-c2cccc3nc(NC(=O)C4CC4)nn23)cc1
6.00 to 6.30

Ok, now O=C(Nc1nc2cccc(-c3ccc(OCc4ccc(Cl)nc4)cc3)n2n1)C1CC1
< 6.00

Ok, now O=C(Nc1ccncc1)c1ccc(-c2cccc3nc(NC(=O)C4CC4)nn23)cc1
< 6.00

Ok, now O=C(Nc1nc2cccc(-c3ccc(C(=O)N4CCCC(c5ccccc5)C4)cc3)n2n1)C1CC1 (stereo not drawn)
< 6.00

Ok, now O=C(Nc1nc2cccc(-c3ccc(CNc4cccnc4)cc3)n2n1)C1CC1
< 6.00

Ok, now O=C(NCCCc1ccccc1)c1ccc(-c2cccc3nc(NC(=O)C4CC4)nn23)cc1
6.00 to 6.30

Ok, now O=C(Nc1nc2cccc(-c3ccc(OC4CCCC4)cc3)n2n1)C1CC1
6.30 to 9.00

Ok, now O=C(NCCOc1ccccc1)c1ccc(-c2cccc3nc(NC(=O)C4CC4)nn23)c(F)c1
< 6.00

Ok, now O=C(Nc1nc2cccc(-c3ccc(NCc4ccccc4)nc3)n2n1)C1CC1
< 6.00

Ok, now O=C(Nc1nc2cccc(-c3ccc(C(=O)N4CCCCC4)cc3)n2n1)C1CC1
< 6.00

Ok, now N#CCc1ccc(OCc2ccc(-c3cccc4nc(NC(=O)C5CC5)nn34)cc2)cc1
< 6.00

Ok, now O=C(Nc1nc2cccc(-c3ccc(OCc4ccccc4)cc3)n2n1)C1CC1
< 6.00

Ok, now O=C(Nc1nc2cccc(-c3ccc(NS(=O)(=O)CCc4ccccc4)cc3)n2n1)C1CC1
6.30 to 9.00

Ok, now COc1ccc(CN(C)C(=O)c2ccc(-c3cccc4nc(NC(=O)C5CC5)nn34)cc2)cc1
< 6.00

Ok, now N#Cc1ccc(COC2CN(C(=O)c3ccc(-c4cccc5nc(NC(=O)C6CC6)nn45)cc3)C2)cc1
6.00 to 6.30

Ok, now O=C(Nc1nc2cccc(-c3ccc(NS(=O)(=O)CCc4cccc(F)c4)cc3)n2n1)C1CC1
< 6.00

Ok, now O=C(Nc1nc2cccc(-c3ccc(S(=O)(=O)NC4CC4)cc3)n2n1)C1CC1
< 6.00

Ok, now O=C(Nc1nc2cccc(-c3ccc(NS(=O)(=O)c4ccc(F)cc4)cc3)n2n1)C1CC1
< 6.00

Ok, now O=C(Nc1nc2cccc(-c3ccc(NCc4cccnc4)cc3)n2n1)C1CC1
< 6.00
